measuredOn: HLA-A*26:03
experimentNotes: IEDB peptide-MHC binding, purified MHC/competitive/fluorescence; filed as Kd, often an IC50 or EC50 that approximates it; bounds were set here for any values at or beyond the usual limits of such assays
experimentalParameters: source organism: Vaccinia virus Copenhagen
measuredQuantity: Kd

Q) For the sequence shown here, `SLYKYLLLR` , give the reported Kd.
A) ≥ 20 µM

----------
measuredOn: HLA-A*29:02
experimentNotes: IEDB peptide-MHC binding, purified MHC/competitive/radioactivity; filed as Kd, often an IC50 or EC50 that approximates it; bounds were set here for any values at or beyond the usual limits of such assays
experimentalParameters: source organism: SARS coronavirus Tor2
Field: pKd. Provide a value for each of the sequences that follow.
To interpret pKd, take it as minus log10 of a concentration measured in moles per litre.

Q) For the sequence shown here, `NGDVVAIDY` , give the reported pKd.
A) 6.08

Q) Another sequence: `TCDGNTFTY`
A) 8.16

Q) Another sequence: `GYLKPTTFM`
A) 6.27

Q) Another sequence: `CYGVSATKL`
A) 4.91

Q) Another sequence: `CTLSEQLDY`
A) 8.98

Q) Another sequence: `QFLYLYALI`
A) 7.19

Q) Another sequence: `NFKHLREFVF`
A) 7.79

----------
measuredOn: HLA-B*15:42
experimentNotes: IEDB peptide-MHC binding, purified MHC/competitive/fluorescence; filed as Kd, often an IC50 or EC50 that approximates it; bounds were set here for any values at or beyond the usual limits of such assays
experimentalParameters: source organism: Escherichia coli 536
Field: Kd. Provide a value for each of the sequences that follow.

Q) For the sequence shown here, `YSRMLYIEF` , give the reported Kd.
A) ≥ 5 µM

Q) Another sequence: `HPASRLFPF`
A) ≥ 5 µM

----------
measuredOn: HLA-A*03:01
experimentNotes: IEDB peptide-MHC binding, purified MHC/direct/fluorescence; filed as Kd, often an IC50 or EC50 that approximates it; bounds were set here for any values at or beyond the usual limits of such assays
experimentalParameters: source organism: Escherichia coli O157:H7
pKd: −log10 of the molar value.
measuredQuantity: pKd

Q) Form: Entry = `GLKRGGVLL` | System = HLA-A*03:01 | pKd = ____
A) ≤ 4.70

Q) Another sequence: `NLPSKPVWL`
A) ≤ 4.70

----------
measuredOn: HLA-B*44:02
experimentNotes: IEDB peptide-MHC binding, purified MHC/competitive/radioactivity; filed as Kd, often an IC50 or EC50 that approximates it; bounds were set here for any values at or beyond the usual limits of such assays
experimentalParameters: source organism: Lassa virus Josiah
pKd: −log10 of the molar value.
measuredQuantity: pKd

Q) For the sequence shown here, `FDAAVSGGL` , give the reported pKd.
A) ≤ 4.11

----------
measuredOn: HLA-B*18:01
experimentNotes: IEDB peptide-MHC binding, purified MHC/competitive/fluorescence; filed as Kd, often an IC50 or EC50 that approximates it; bounds were set here for any values at or beyond the usual limits of such assays
experimentalParameters: source organism: Corynebacterium glutamicum R
measuredQuantity: Kd

Q) For the sequence shown here, `RYDDGQSIY` , give the reported Kd.
A) ≥ 20 µM

----------
measuredOn: HLA-A*02:01
experimentNotes: IEDB peptide-MHC binding, purified MHC/direct/fluorescence; filed as Kd, often an IC50 or EC50 that approximates it; bounds were set here for any values at or beyond the usual limits of such assays
experimentalParameters: source organism: Influenza A virus (A/tiger/Thailand/CU-T6/04(H5N1))
measuredQuantity: Kd

Q) Form: Entry = `TYQWIIRNW` | System = HLA-A*02:01 | Kd = ____
A) ≥ 20 µM

----------
measuredOn: HLA-A*68:01
experimentNotes: IEDB peptide-MHC binding, purified MHC/competitive/radioactivity; filed as Kd, often an IC50 or EC50 that approximates it; bounds were set here for any values at or beyond the usual limits of such assays
experimentalParameters: source organism: Vaccinia virus WR
Field: Kd. Provide a value for each of the sequences that follow.
Only the number, expressed in nM, is required.

Q) For the sequence shown here, `KLNGAMVEY` , give the reported Kd.
A) 5.97

Q) Another sequence: `PFKVINLPK`
A) 15500

Q) Another sequence: `HIASKINNNR`
A) 18.8

Q) Another sequence: `LLRHYYNKR`
A) 2520

Q) Another sequence: `SIKDVIHDY`
A) 3550

Q) Another sequence: `YLSTFNMWR`
A) 3.42

Q) Another sequence: `AAKYVEHDPR`
A) 251

Q) Another sequence: `MVDELVTRK`
A) 793

Q) Another sequence: `TIPIGMQFDK`
A) 38.1

Q) Another sequence: `ITDMINASLK`
A) 76.3

Q) Another sequence: `WLSMTDEMR`
A) 34.4

Q) Another sequence: `SFSNTIQSY`
A) 10400

----------
measuredOn: HLA-A*29:02
experimentNotes: IEDB peptide-MHC binding, purified MHC/competitive/fluorescence; filed as Kd, often an IC50 or EC50 that approximates it; bounds were set here for any values at or beyond the usual limits of such assays
experimentalParameters: source organism: Shigella boydii
pKd: −log10 of the molar value.
measuredQuantity: pKd

Q) For the sequence shown here, `IWWEQYMQY` , give the reported pKd.
A) ≥ 10.00

----------
measuredOn: HLA-B*40:01
experimentNotes: IEDB peptide-MHC binding, purified MHC/competitive/radioactivity; filed as Kd, often an IC50 or EC50 that approximates it; bounds were set here for any values at or beyond the usual limits of such assays
experimentalParameters: source organism: Lassa virus Josiah
measuredQuantity: Kd

Q) For the sequence shown here, `FDAAVSGGL` , give the reported Kd.
A) ≥ 20 µM

----------
measuredOn: HLA-B*40:02
experimentNotes: IEDB peptide-MHC binding, cellular MHC/competitive/fluorescence; bounds were set here for any values at or beyond the usual limits of such assays
experimentalParameters: source organism: Homo sapiens
measuredQuantity: pIC50
To interpret pIC50, take it as minus log10 of a concentration measured in moles per litre.

Q) For the sequence shown here, `SEFSDVDKL` , give the reported pIC50.
A) 5.85

----------
measuredOn: HLA-B*39:01
experimentNotes: IEDB peptide-MHC binding, purified MHC/competitive/fluorescence; filed as Kd, often an IC50 or EC50 that approximates it; bounds were set here for any values at or beyond the usual limits of such assays
experimentalParameters: source organism: Giardia lamblia ATCC 50803
pKd: −log10 of the molar value.
measuredQuantity: pKd

Q) For the sequence shown here, `ELLDHLLLF` , give the reported pKd.
A) ≤ 4.70

----------
measuredOn: HLA-B*35:01
experimentNotes: IEDB peptide-MHC binding, purified MHC/competitive/fluorescence; filed as Kd, often an IC50 or EC50 that approximates it; bounds were set here for any values at or beyond the usual limits of such assays
experimentalParameters: source organism: Vaccinia virus
measuredQuantity: Kd

Q) Form: Entry = `LLLLISLVY` | System = HLA-B*35:01 | Kd = ____
A) ≥ 20 µM

----------
measuredOn: HLA-A*26:01
experimentNotes: IEDB peptide-MHC binding, purified MHC/direct/fluorescence; filed as Kd, often an IC50 or EC50 that approximates it; bounds were set here for any values at or beyond the usual limits of such assays
experimentalParameters: source organism: Mycobacterium tuberculosis str. Haarlem
measuredQuantity: Kd

Q) For the sequence shown here, `RPRRASSPF` , give the reported Kd.
A) ≥ 20 µM

Q) Another sequence: `KYFVRSTEK`
A) ≥ 20 µM

----------
measuredOn: HLA-A*26:01
experimentNotes: IEDB peptide-MHC binding, purified MHC/competitive/fluorescence; filed as Kd, often an IC50 or EC50 that approximates it; bounds were set here for any values at or beyond the usual limits of such assays
experimentalParameters: source organism: Vibrio parahaemolyticus K5030
measuredQuantity: Kd

Q) For the sequence shown here, `WLGDVWQEK` , give the reported Kd.
A) ≥ 20 µM

Q) Another sequence: `DMRKRIEAF`
A) ≥ 20 µM

----------
measuredOn: HLA-A*26:01
experimentNotes: IEDB peptide-MHC binding, purified MHC/competitive/fluorescence; filed as Kd, often an IC50 or EC50 that approximates it; bounds were set here for any values at or beyond the usual limits of such assays
experimentalParameters: source organism: Mus musculus
measuredQuantity: Kd

Q) For the sequence shown here, `CLVSGLSSL` , give the reported Kd.
A) ≥ 20 µM

----------
measuredOn: HLA-B*40:01
experimentNotes: IEDB peptide-MHC binding, purified MHC/direct/fluorescence; filed as Kd, often an IC50 or EC50 that approximates it; bounds were set here for any values at or beyond the usual limits of such assays
experimentalParameters: source organism: Shigella flexneri
measuredQuantity: Kd

Q) For the sequence shown here, `LSSIGIPAY` , give the reported Kd.
A) ≥ 20 µM

----------
measuredOn: HLA-A*02:12
experimentNotes: IEDB peptide-MHC binding, purified MHC/competitive/fluorescence; filed as Kd, often an IC50 or EC50 that approximates it; bounds were set here for any values at or beyond the usual limits of such assays
experimentalParameters: source organism: Vibrio parahaemolyticus K5030
measuredQuantity: Kd

Q) Form: Entry = `WLGDVWQEK` | System = HLA-A*02:12 | Kd = ____
A) ≥ 20 µM
